Listing of recorded Kd by entry.
- System: HLA-A*29:02
- Procedure summary: IEDB peptide-MHC binding, purified MHC/competitive/radioactivity; filed as Kd, often an IC50 or EC50 that approximates it; bounds were set here for any values at or beyond the usual limits of such assays
- Settings: source organism: Mammarenavirus brazilense
The answer is to be given in nM; state only the numeric part.

Solved cases (3 shown):
{"columns": ["Ordered residues", "System", "Property", "Meas value"],
 "data": [
  ["SIKRNYPYLF", "HLA-A*29:02", "Kd", 2340],
  ["QMISSIDRFF", "HLA-A*29:02", "Kd", 1850],
  ["GSLLHGLWPY", "HLA-A*29:02", "Kd", 401]
]}

Let us move to another entry and its Kd.
Query string: What measured Kd is associated with ESAQPGLLSY on HLA-A*29:02?
Result string: 3090

###

- System: HLA-B*58:01
- Procedure summary: IEDB peptide-MHC binding, purified MHC/direct/fluorescence; filed as Kd, often an IC50 or EC50 that approximates it; bounds were set here for any values at or beyond the usual limits of such assays
- Settings: source organism: Yersinia pestis Nepal516
Property: Kd

Query string: Request the reported Kd associated with QQSEARRML
Result string: ≥ 20 µM

###

- System: HLA-A*03:01
- Procedure summary: IEDB peptide-MHC binding, purified MHC/direct/fluorescence; filed as Kd, often an IC50 or EC50 that approximates it; bounds were set here for any values at or beyond the usual limits of such assays
- Settings: source organism: Choclo virus
pKd: −log10 of the molar value.
Property: pKd

Query string: Which pKd is reported for this sequence? GRFQEALKK
Result string: ≤ 4.70

###

- System: HLA-A*01:01
- Procedure summary: IEDB peptide-MHC binding, purified MHC/competitive/radioactivity; filed as Kd, often an IC50 or EC50 that approximates it; bounds were set here for any values at or beyond the usual limits of such assays
- Settings: source organism: Triticum aestivum
Property: Kd

Query string: I have this sequence here, QYPSGQGSF , and I need its recorded Kd.
Result string: ≥ 61.5 µM

###

- System: HLA-C*14:02
- Procedure summary: IEDB peptide-MHC binding, purified MHC/direct/fluorescence; filed as Kd, often an IC50 or EC50 that approximates it; bounds were set here for any values at or beyond the usual limits of such assays
- Settings: source organism: Mycobacterium tuberculosis variant bovis BCG str. Pasteur 1173P2
Property: pKd
Scale note: pKd = -log10(concentration in M).

Query string: Value lookup for pKd; key = APPPQRAAM
Result string: 7.21

###

- System: HLA-B*40:01
- Procedure summary: IEDB peptide-MHC binding, purified MHC/direct/fluorescence; filed as Kd, often an IC50 or EC50 that approximates it; bounds were set here for any values at or beyond the usual limits of such assays
- Settings: source organism: Orthomarburgvirus marburgense
Property: Kd (nM)
// units = nM; emit number, no label

Query string: Endpoint output: Kd of LEHGLYPQL . Value?
Result string: 17

###

- System: HLA-B*15:01
- Procedure summary: IEDB peptide-MHC binding, purified MHC/competitive/fluorescence; filed as Kd, often an IC50 or EC50 that approximates it; bounds were set here for any values at or beyond the usual limits of such assays
- Settings: source organism: Canarypox virus
pKd: −log10 of the molar value.
Property: pKd

Query string: Any idea what pKd was measured for GTIIVHPNK ?
Result string: ≤ 4.70
